# Subject Of Test: urate transporter 1 (URAT1) (Homo sapiens)
# Construct: human URAT1 cDNA in pCMV-SPORT6, transiently transfected into HEK293/PDZK1 cells
# Sequence (Q96S37 1-553): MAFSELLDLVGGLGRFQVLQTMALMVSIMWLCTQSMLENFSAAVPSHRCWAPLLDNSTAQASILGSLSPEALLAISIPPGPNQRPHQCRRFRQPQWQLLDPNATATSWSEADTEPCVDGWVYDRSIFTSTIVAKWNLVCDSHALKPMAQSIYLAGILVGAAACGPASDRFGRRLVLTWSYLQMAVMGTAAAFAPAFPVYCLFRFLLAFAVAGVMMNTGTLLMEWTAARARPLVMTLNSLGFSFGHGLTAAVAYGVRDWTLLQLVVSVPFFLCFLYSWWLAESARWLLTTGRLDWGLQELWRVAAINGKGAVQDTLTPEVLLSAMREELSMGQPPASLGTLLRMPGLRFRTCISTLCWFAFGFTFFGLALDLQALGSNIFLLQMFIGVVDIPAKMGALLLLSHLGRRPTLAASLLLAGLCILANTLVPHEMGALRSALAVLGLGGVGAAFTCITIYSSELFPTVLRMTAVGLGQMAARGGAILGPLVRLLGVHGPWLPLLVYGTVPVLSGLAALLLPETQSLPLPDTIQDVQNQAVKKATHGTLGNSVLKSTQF
# Assay Remarks: [[…]-14C]uric acid uptake in URAT1-transfected HEK293/PDZK1 cells, mock-subtracted; Lineweaver-Burk kinetics
Measured Property: IC50 (µM)
One number for each entry, in µM.

Q: Looking for the measured IC50 of COc1ccc2ccc(=O)oc2c1CC=C(C)C , can you help?
Result: 78.8
